Hello, the source for this data is patent US7915270B2, in case you need it.

Recorded measurements of IC50, one per entry
# study-target: Rat FAAH (Rattus norvegicus)
# protocol-text: Assay Method 2: FAAH assay, 3H-anandamide hydrolysis in cell homogenate (SK-N-MC cells transfected with rat FAAH)
# stated-conditions: 3H-AEA 80 nM, rt 1 h, pH 9
assay-metric: IC50 (µM)

INSERT INTO measurements (smiles_code, study_target, assay_metric, uom, observed) VALUES
  ('O=C(CCCCCCc1ccccc1)c1ncc(-c2c[nH]c(=O)[nH]c2=O)o1', 'Rat FAAH (Rattus norvegicus)', 'IC50', 'µM', 0.047),
  ('O=C(O)c1ccc(-c2cnc(C(=O)CCCCCCc3ccccc3)o2)nc1', 'Rat FAAH (Rattus norvegicus)', 'IC50', 'µM', 0.002),
  ('O=C(CCCCCCc1ccccc1)c1ncc(-c2ccc(C(=O)O)s2)o1', 'Rat FAAH (Rattus norvegicus)', 'IC50', 'µM', 0.009),
  ('O=C(CCCCCCc1ccccc1)c1ncc(-c2cccc([N+](=O)[O-])c2)o1', 'Rat FAAH (Rattus norvegicus)', 'IC50', 'µM', 0.5);

====

# study-target: FAAH (Rattus norvegicus)
# protocol-text: Assay Method 1A: FAAH enzyme assay, 14C-oleamide hydrolysis, solubilized liver plasma membrane extract
Recorded measurements of Ki, one per entry
assay-metric: Ki (nM)

INSERT INTO results (smiles_code, qual, observed) VALUES
  ('O=C(O)c1ccc(-c2cnc(C(=O)CCCCCCc3ccccc3)o2)cc1', '=', 60),
  ('O=C(CCCCCCc1ccccc1)c1ncc(-c2ncccc2C(=O)O)o1', '>', 50),
  ('COC(=O)c1ccc(-c2cnc(C(=O)CCCCCCc3ccccc3)o2)nc1', '=', 4);

====

# study-target: FAAH (Rattus norvegicus)
# Sequence (P97612 1-579): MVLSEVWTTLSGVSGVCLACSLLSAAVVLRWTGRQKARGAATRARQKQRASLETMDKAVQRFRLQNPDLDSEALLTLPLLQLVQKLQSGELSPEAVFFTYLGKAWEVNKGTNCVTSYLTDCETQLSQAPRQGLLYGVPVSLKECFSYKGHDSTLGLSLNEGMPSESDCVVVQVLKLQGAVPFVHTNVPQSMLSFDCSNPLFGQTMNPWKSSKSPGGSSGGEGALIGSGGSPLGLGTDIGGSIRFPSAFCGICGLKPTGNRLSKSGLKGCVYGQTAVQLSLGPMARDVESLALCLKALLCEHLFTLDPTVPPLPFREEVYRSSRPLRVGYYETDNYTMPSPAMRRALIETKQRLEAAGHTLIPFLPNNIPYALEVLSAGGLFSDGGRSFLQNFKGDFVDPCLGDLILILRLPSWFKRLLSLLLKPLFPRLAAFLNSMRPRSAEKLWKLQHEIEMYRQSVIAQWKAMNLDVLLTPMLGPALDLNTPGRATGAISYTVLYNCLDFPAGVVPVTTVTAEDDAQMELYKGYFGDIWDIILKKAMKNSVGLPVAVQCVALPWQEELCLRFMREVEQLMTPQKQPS
# protocol-text: Assay Method 1A: FAAH enzyme assay, 14C-oleamide hydrolysis, solubilized liver plasma membrane extract;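 note: ki obtained by Dixon analysis, taking the x-intercept of inhibitor concentration versus reciprocal rate plots at fixed substrate level and correcting for substrate concentration relative to Km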
pKi: −log10 of the molar value.
Recorded measurements of pKi, one per entry
assay-metric: pKi

INSERT INTO results (smiles_code, assay_metric, qual, observed) VALUES
  ('COC(=O)c1cccc(-c2cnc(C(=O)CCCCCCc3ccccc3)o2)c1', 'pKi', '=', 7.92),
  ('COc1ncc(-c2cnc(C(=O)CCCCCCc3ccccc3)o2)c(OC)n1', 'pKi', '=', 7.59),
  ('O=C(CCCCCCc1ccccc1)c1ncc(-c2ccccc2F)o1', 'pKi', '=', 6.96),
  ('Cc1cccnc1-c1cnc(C(=O)CCCCCCc2ccccc2)o1', 'pKi', '=', 7.82),
  ('O=C(CCCCCCc1ccccc1)c1ncc(-c2ccccc2C(=O)O)o1', 'pKi', '=', 5.22),
  ('NS(=O)(=O)c1ccc(-c2cnc(C(=O)CCCCCCc3ccccc3)o2)s1', 'pKi', '=', 8.52),
  ('COC(=O)c1ccccc1-c1cnc(C(=O)CCCCCCc2ccccc2)o1', 'pKi', '=', 7.22),
  ('NS(=O)(=O)c1cccc(-c2cnc(C(=O)CCCCCCc3ccccc3)o2)c1', 'pKi', '=', 8.70),
  ('O=C(O)c1ccc(-c2cnc(C(=O)CCCCCCc3ccccc3)o2)o1', 'pKi', '=', 7.82),
  ('NS(=O)(=O)c1ccccc1-c1cnc(C(=O)CCCCCCc2ccccc2)o1', 'pKi', '=', 5.82),
  ('O=C(CCCCCCc1ccccc1)c1ncc(-c2ccc(C(=O)O)s2)o1', 'pKi', '=', 7.96),
  ('O=C(O)c1ccc(-c2cnc(C(=O)CCCCCCc3ccccc3)o2)nc1', 'pKi', '=', 8.15),
  ('NS(=O)(=O)c1ccc(-c2cnc(C(=O)CCCCCCc3ccccc3)o2)cc1', 'pKi', '=', 8.00),
  ('O=C(CCCCCCc1ccccc1)c1ncc(-c2cc([N+](=O)[O-])ccn2)o1', 'pKi', '=', 8.52),
  ('COc1ccccc1-c1cnc(C(=O)CCCCCCc2ccccc2)o1', 'pKi', '=', 6.40),
  ('COc1cc(-c2cnc(C(=O)CCCCCCc3ccccc3)o2)nc(OC)n1', 'pKi', '=', 8.30),
  ('COC(=O)c1ccc(-c2cnc(C(=O)CCCCCCc3ccccc3)o2)cc1', 'pKi', '=', 7.40),
  ('O=C(CCCCCCc1ccccc1)c1ncc(-c2ccccc2O)o1', 'pKi', '=', 6.77),
  ('O=C(O)c1cccc(-c2cnc(C(=O)CCCCCCc3ccccc3)o2)c1', 'pKi', '=', 8.30),
  ('Cc1ccc(-c2cnc(C(=O)CCCCCCc3ccccc3)o2)nc1', 'pKi', '=', 8.52),
  ('O=C(CCCCCCc1ccccc1)c1ncc(-c2cccc(F)c2)o1', 'pKi', '=', 7.22),
  ('N#Cc1ccnc(-c2cnc(C(=O)CCCCCCc3ccccc3)o2)c1', 'pKi', '=', 8.70),
  ('Nc1cccc(-c2cnc(C(=O)CCCCCCc3ccccc3)o2)c1', 'pKi', '=', 7.72),
  ('O=C(CCCCCCc1ccccc1)c1ncc(-c2cc(=O)[nH]c(=O)[nH]2)o1', 'pKi', '=', 7.72),
  ('Cc1ccnc(-c2cnc(C(=O)CCCCCCc3ccccc3)o2)c1', 'pKi', '=', 9.00),
  ('COc1cccc(-c2cnc(C(=O)CCCCCCc3ccccc3)o2)c1', 'pKi', '=', 7.40),
  ('O=C(CCCCCCc1ccccc1)c1ncc(-c2cc(C(F)(F)F)ccn2)o1', 'pKi', '=', 8.40),
  ('COC(=O)c1ccc(-c2cnc(C(=O)CCCCCCc3ccccc3)o2)o1', 'pKi', '=', 8.22),
  ('COC(=O)c1ccnc(-c2cnc(C(=O)CCCCCCc3ccccc3)o2)c1', 'pKi', '=', 9.00),
  ('COC(=O)c1cccnc1-c1cnc(C(=O)CCCCCCc2ccccc2)o1', 'pKi', '<', 7.30);
